- system.name: 5-hydroxytryptamine receptor 1A (Homo sapiens)
- measurement.description: human 5-HT1a receptor antagonists, primary screen, cell-based, CHO, Ga15 NFAT-bla reporter (AID 612);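 also: receptor stimulated by 5-CT agonist at 100 nM near EC80; beta-lactamase reporter measured by ratiometric fluorescence of a cleavable substrate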
- applied.conditions: CHO 5-HT1a Ga15 NFAT-bla reporter, antagonist mode; at 10 µM; hits give high values
Out of some 62,000 compounds screened, about 420 (0.68%) were called active. This excerpt belongs to a sample that is enriched for actives.

>  <compound>
O=c1cc(CSc2ccc(Cl)cc2)nc(N2CCOCC2)[nH]1

>  <inhibition (%)>
-13.7

$$$$
>  <compound>
COC(=O)Cc1c(C)c2ccc(OCC(=O)NCc3ccc4c(c3)OCO4)cc2oc1=O

>  <inhibition (%)>
12.5

$$$$
>  <compound>
COc1ccc(S(=O)(=O)N2CCOCC2)cc1C(=O)Nc1nc2ccccc2s1

>  <inhibition (%)>
-17.7

$$$$
>  <compound>
O=S(=O)(Nc1nccs1)c1ccc2c(c1)OCCO2

>  <inhibition (%)>
-0.3

$$$$
>  <compound>
CN1CCN(C(=O)C2C3C=CC(C3)C2C(=O)O)CC1 (stereo not given)

>  <inhibition (%)>
-4

$$$$

###

- system.name: 5-hydroxytryptamine receptor 1A (Homo sapiens)
- measurement.description: human 5-HT1a receptor antagonists, primary screen, cell-based, CHO, Ga15 NFAT-bla reporter (AID 612);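 also: receptor stimulated by 5-CT agonist at 100 nM near EC80; beta-lactamase reporter measured by ratiometric fluorescence of a cleavable substrate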
- applied.conditions: CHO 5-HT1a Ga15 NFAT-bla reporter, antagonist mode; at 10 µM; hits give high values
The campaign covered roughly 62,000 compounds. About 420 (0.68%) were called active. This is one part of a sample in which actives are shown more often than they occur.
Reported inhibition values for a set of molecules

>  <molecule>
COC(=O)c1ccc(NC(=O)CSc2nnc(Cc3cccn3C)n2-c2ccc(F)cc2)cc1

>  <system.name>
5-hydroxytryptamine receptor 1A (Homo sapiens)

>  <inhibition [%]>
3.3

$$$$
>  <molecule>
CN(CCC#N)c1ncnc2scc(-c3ccccc3)c12

>  <system.name>
5-hydroxytryptamine receptor 1A (Homo sapiens)

>  <inhibition [%]>
11.5

$$$$
>  <molecule>
Cc1noc(C)c1S(=O)(=O)N(CC(=O)Nc1ccc2c(c1)OCCO2)c1ccc(C(C)C)cc1

>  <system.name>
5-hydroxytryptamine receptor 1A (Homo sapiens)

>  <inhibition [%]>
2

$$$$
>  <molecule>
Cc1ccc(C2(c3ccc(C)cc3)NC(=O)N(Cc3c(C)noc3C)C2=O)cc1

>  <system.name>
5-hydroxytryptamine receptor 1A (Homo sapiens)

>  <inhibition [%]>
1.9

$$$$
>  <molecule>
CC(C)NS(=O)(=O)c1ccc(CCC(=O)N2CCOCC2)cc1

>  <system.name>
5-hydroxytryptamine receptor 1A (Homo sapiens)

>  <inhibition [%]>
-10.5

$$$$
>  <molecule>
COc1ccccc1C(=O)Oc1ccc(N2C(=O)CCC2=O)cc1

>  <system.name>
5-hydroxytryptamine receptor 1A (Homo sapiens)

>  <inhibition [%]>
-3.5

$$$$
>  <molecule>
Cc1ccnc(SCCn2c(Br)nc3c2c(=O)[nH]c(=O)n3C)n1

>  <system.name>
5-hydroxytryptamine receptor 1A (Homo sapiens)

>  <inhibition [%]>
-4.8

$$$$
>  <molecule>
COc1ccccc1N1CCN(Cc2nnnn2CCc2ccccc2)CC1

>  <system.name>
5-hydroxytryptamine receptor 1A (Homo sapiens)

>  <inhibition [%]>
5.1

$$$$
>  <molecule>
O=C(CSCc1cccs1)N1CCCC1

>  <system.name>
5-hydroxytryptamine receptor 1A (Homo sapiens)

>  <inhibition [%]>
-5.9

$$$$
>  <molecule>
Cc1ccc(N2C(=O)CC(NCc3ccc4c(c3)OCO4)C2=O)cc1Cl (centres undefined)

>  <system.name>
5-hydroxytryptamine receptor 1A (Homo sapiens)

>  <inhibition [%]>
-4.3

$$$$
>  <molecule>
CC(C)Cc1cc(C(=O)Nc2cc(Br)ccc2O)no1

>  <system.name>
5-hydroxytryptamine receptor 1A (Homo sapiens)

>  <inhibition [%]>
17.4

$$$$
>  <molecule>
O=C(NC1=NCCS1)c1ccc(Cl)s1

>  <system.name>
5-hydroxytryptamine receptor 1A (Homo sapiens)

>  <inhibition [%]>
10.2

$$$$
>  <molecule>
CSCC[C@H](NC(=O)NCc1cccs1)C(=O)O

>  <system.name>
5-hydroxytryptamine receptor 1A (Homo sapiens)

>  <inhibition [%]>
4.7

$$$$
>  <molecule>
O=S(=O)(NCc1ccccc1Cl)c1cnc[nH]1

>  <system.name>
5-hydroxytryptamine receptor 1A (Homo sapiens)

>  <inhibition [%]>
-4.7

$$$$
>  <molecule>
O=C(CSc1nnc2ccccn12)c1ccccc1

>  <system.name>
5-hydroxytryptamine receptor 1A (Homo sapiens)

>  <inhibition [%]>
3.3

$$$$
>  <molecule>
CCN(CC)S(=O)(=O)c1cccc(C(=O)Nc2ccccc2)c1

>  <system.name>
5-hydroxytryptamine receptor 1A (Homo sapiens)

>  <inhibition [%]>
16.2

$$$$
>  <molecule>
CCOC(=O)C1CCCN(C(=O)CN(c2ccc(OC)cc2)S(=O)(=O)c2c(C)noc2C)C1 (centres undefined)

>  <system.name>
5-hydroxytryptamine receptor 1A (Homo sapiens)

>  <inhibition [%]>
-9.3

$$$$
>  <molecule>
c1ccc(-c2cn3cccnc3n2)cc1

>  <system.name>
5-hydroxytryptamine receptor 1A (Homo sapiens)

>  <inhibition [%]>
-0.3

$$$$
>  <molecule>
Cc1c(C(=O)NCCN2CCOCC2)sc2nc(-c3ccc(F)cc3)cn12

>  <system.name>
5-hydroxytryptamine receptor 1A (Homo sapiens)

>  <inhibition [%]>
-8

$$$$
>  <molecule>
COc1ccc(C2OC(=O)CC2C(=O)NC(C)C)cc1 (centres undefined)

>  <system.name>
5-hydroxytryptamine receptor 1A (Homo sapiens)

>  <inhibition [%]>
-3.4

$$$$
>  <molecule>
O=C1c2cccnc2C(=O)N1Cc1cccs1

>  <system.name>
5-hydroxytryptamine receptor 1A (Homo sapiens)

>  <inhibition [%]>
-0.8

$$$$
>  <molecule>
CCOC(=O)C1CCN(Cc2coc3ccc(Cl)cc3c2=O)CC1

>  <system.name>
5-hydroxytryptamine receptor 1A (Homo sapiens)

>  <inhibition [%]>
5

$$$$
>  <molecule>
Cc1cc2c(=O)n(C)c(SCC(=O)c3cc4ccccc4o3)nc2s1

>  <system.name>
5-hydroxytryptamine receptor 1A (Homo sapiens)

>  <inhibition [%]>
-6.7

$$$$
>  <molecule>
COCCOC(=O)C1=C(C)NC(=O)CC1c1cc2c(cc1Br)OCO2 (centres undefined)

>  <system.name>
5-hydroxytryptamine receptor 1A (Homo sapiens)

>  <inhibition [%]>
3.2

$$$$
>  <molecule>
CCOc1ccc(N(CC(=O)NCc2ccc(OC)cc2)S(=O)(=O)c2c(C)noc2C)cc1

>  <system.name>
5-hydroxytryptamine receptor 1A (Homo sapiens)

>  <inhibition [%]>
3.7

$$$$
>  <molecule>
COc1ccc(CNC(=O)C2CCN(S(=O)(=O)N3CCOCC3)CC2)cc1

>  <system.name>
5-hydroxytryptamine receptor 1A (Homo sapiens)

>  <inhibition [%]>
5.7

$$$$
>  <molecule>
CCOC(=O)N1CCN(C(=O)C2CCCN(c3ncnc4c3sc3cccc(F)c34)C2)CC1 (centres undefined)

>  <system.name>
5-hydroxytryptamine receptor 1A (Homo sapiens)

>  <inhibition [%]>
7.8

$$$$
>  <molecule>
CCCC(=O)Nc1ccc(Cl)c(NC(=O)c2ccc(Br)o2)c1

>  <system.name>
5-hydroxytryptamine receptor 1A (Homo sapiens)

>  <inhibition [%]>
-5.8

$$$$
>  <molecule>
Cc1nc(C)c2c(c1C(F)(F)F)-c1ccccc1C2(F)F

>  <system.name>
5-hydroxytryptamine receptor 1A (Homo sapiens)

>  <inhibition [%]>
-9.3

$$$$
>  <molecule>
CC1CCN(c2oc(-c3ccccc3F)nc2C#N)CC1

>  <system.name>
5-hydroxytryptamine receptor 1A (Homo sapiens)

>  <inhibition [%]>
13.1

$$$$
>  <molecule>
CCCc1nc(SCC(=O)Nc2ccccc2OC)c2c(=O)n(C)c(=O)n(C)c2n1

>  <system.name>
5-hydroxytryptamine receptor 1A (Homo sapiens)

>  <inhibition [%]>
10.8

$$$$
>  <molecule>
c1csc(CN2CCN(Cc3cccs3)C2c2cccs2)c1

>  <system.name>
5-hydroxytryptamine receptor 1A (Homo sapiens)

>  <inhibition [%]>
78.7

$$$$
>  <molecule>
COc1nc(NCc2ccc(Cl)cc2)nc(OC)n1

>  <system.name>
5-hydroxytryptamine receptor 1A (Homo sapiens)

>  <inhibition [%]>
-1.3

$$$$
>  <molecule>
O=S(=O)(c1ccc(Sc2nnc3ccccn23)nc1)N1CCOCC1

>  <system.name>
5-hydroxytryptamine receptor 1A (Homo sapiens)

>  <inhibition [%]>
-7.8

$$$$
>  <molecule>
CC(C)CCNC(=O)CN(C(=O)Cn1nnc(-c2ccc(F)cc2)n1)C1CCCC1

>  <system.name>
5-hydroxytryptamine receptor 1A (Homo sapiens)

>  <inhibition [%]>
9.5

$$$$
>  <molecule>
COc1cc2c(cc1OC)C(c1ccc(C)o1)CC(=O)N2 (centres undefined)

>  <system.name>
5-hydroxytryptamine receptor 1A (Homo sapiens)

>  <inhibition [%]>
30.2

$$$$
>  <molecule>
O=C(CCc1ccccc1)Nc1cccc(-c2nnc(-c3ccco3)o2)c1

>  <system.name>
5-hydroxytryptamine receptor 1A (Homo sapiens)

>  <inhibition [%]>
10

$$$$
>  <molecule>
COCCn1nnnc1C(c1cc2ccc(OC)cc2[nH]c1=O)N1CCc2ccccc2C1 (centres undefined)

>  <system.name>
5-hydroxytryptamine receptor 1A (Homo sapiens)

>  <inhibition [%]>
1.8

$$$$
>  <molecule>
COc1ccccc1-n1nnnc1S(=O)(=O)Cc1ccc(Cl)cc1

>  <system.name>
5-hydroxytryptamine receptor 1A (Homo sapiens)

>  <inhibition [%]>
82.7

$$$$
